- target or test system: KAT-8 (Homo sapiens (Human), UniProt Q9H7Z6)
- Sequence (Q9H7Z6 other isoform, or with tags, fused parts or gaps): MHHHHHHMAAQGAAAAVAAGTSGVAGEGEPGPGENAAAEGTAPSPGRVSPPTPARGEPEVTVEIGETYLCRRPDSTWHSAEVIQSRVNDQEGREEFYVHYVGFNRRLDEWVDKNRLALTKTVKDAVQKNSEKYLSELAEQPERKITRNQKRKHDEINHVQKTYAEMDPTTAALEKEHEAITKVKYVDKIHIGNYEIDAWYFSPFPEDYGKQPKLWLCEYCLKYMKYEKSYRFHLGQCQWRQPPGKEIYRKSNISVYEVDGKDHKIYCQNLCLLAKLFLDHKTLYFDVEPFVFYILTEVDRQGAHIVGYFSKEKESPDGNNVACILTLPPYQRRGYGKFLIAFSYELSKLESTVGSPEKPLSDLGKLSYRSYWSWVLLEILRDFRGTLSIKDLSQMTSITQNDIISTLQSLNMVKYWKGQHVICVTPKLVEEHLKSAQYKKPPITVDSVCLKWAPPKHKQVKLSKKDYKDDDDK
- protocol summary: KAT-8 biochemical inhibition assay (SAMDI mass spectrometry)
pIC50: −log10 of the molar value.
Would you mind telling me the reported pIC50 of each entry?

State, in one line, measured pIC50 of Cn1cnc(-c2cc(Cl)c(F)c(C(=O)NNS(=O)(=O)CC3CCN(C(N)=O)C3)c2)c1 (stereo not drawn)
4.30 to 5.00

Using known records, supply pIC50 for Cn1cnc(-c2cc(Cl)c(F)c(C(=O)NNS(=O)(=O)CC3CCN(S(=O)(=O)C4CC4)C3)c2)c1 (stereo not drawn)
4.30 to 5.00

# return recorded pIC50 for entry "COCCn1cc(S(=O)(=O)NNC(=O)c2cc(-c3cn(C)cn3)cc(Cl)c2F)cn1"
4.30 to 5.00

Return the recorded pIC50 value; entry: CCNC(=O)N1CCC(CS(=O)(=O)NNC(=O)c2cc(-c3cn(C)cn3)cc(Cl)c2F)C1 (stereo not drawn) [Compound I-64]
4.30 to 5.00

Supply reported pIC50 belonging to this compound: CCNC(=O)NC1CCC(CS(=O)(=O)NNC(=O)c2cc(-c3cn(C)cn3)cc(Cl)c2F)C1 (stereo not drawn)
4.30 to 5.00

For the compound "Cc1cc(-c2cnn(C(C)C)c2)cc(C(=O)NNS(=O)(=O)C2CCCCC2)c1F" , report pIC50.
< 4.00

Fill in reported pIC50 for this entry: COCCn1cnc(-c2cc(C)c(F)c(C(=O)NNS(=O)(=O)CC3CCCNC3)c2)c1 (stereo not drawn)
< 4.00

// fetch pIC50 given entry "Cn1cnc(-c2cc(Cl)c(F)c(C(=O)NNS(=O)(=O)C[C@H]3C[C@H](NC(N)=O)C3)c2)c1"
4.30 to 5.00

Complete the entry with pIC50 for "CCO[C@@H]1CCC[C@H](CS(=O)(=O)NNC(=O)c2cc(-c3cn(C)cn3)cc(Cl)c2F)C1"
4.30 to 5.00

Quick one: give measured pIC50 for "Cc1ncc(-c2cc(Cl)c(F)c(C(=O)NNS(=O)(=O)C3CCOCC3)c2)n1C"
< 4.00

Supply pIC50 value. Item: "O=C(NNS(=O)(=O)CC1CCCCC1)c1cc(-c2ccccn2)cc(Cl)c1F"
< 4.00

Tell us which pIC50 value is on record for "CCNC(=O)N[C@H]1CC[C@H](CS(=O)(=O)NNC(=O)c2cc(-c3cn(C)cn3)cc(Cl)c2F)CC1"
4.30 to 5.00

Could you please provide reported pIC50 for CC(=O)NC1CCCC(CS(=O)(=O)NNC(=O)c2cc(-c3cn(C)cn3)cc(Cl)c2F)C1 (stereo not drawn) ? Thanks!
4.30 to 5.00

Return reported pIC50. Input compound: "Cn1cnc(-c2cc(Cl)c(F)c(C(=O)NNS(=O)(=O)Cc3cccnc3)c2)c1"
4.30 to 5.00

Look up and state reported pIC50 for Cn1cnc(-c2cc(Cl)c(F)c(C(=O)NNS(=O)(=O)CC3CCCCO3)c2)c1 (stereo not drawn)
4.30 to 5.00

For the compound CC(C)S(=O)(=O)N1CCCC(CS(=O)(=O)NNC(=O)c2cc(-c3cn(C)cn3)cc(Cl)c2F)C1 (stereo not drawn) , report pIC50.
4.30 to 5.00

Quickly give me recorded pIC50 for "CNC(=O)N1CC[C@@H](CS(=O)(=O)NNC(=O)c2cc(-c3cn(C)cn3)cc(Cl)c2F)C1"
4.30 to 5.00

State its pIC50 for this compound: "O=C(NNS(=O)(=O)CC1CCOCC1)c1cc(-n2ccnc2)cc(Cl)c1F"
< 4.00

Look up and state reported pIC50 for COCC(=O)N1CCCC(CS(=O)(=O)NNC(=O)c2cc(-c3cn(C)cn3)cc(Cl)c2F)C1 (stereo not drawn)
4.30 to 5.00

Dear colleague, please send me the reported pIC50 for "Cn1cnc(-c2cc(Cl)c(F)c(C(=O)NNS(=O)(=O)C[C@@H]3C[C@H]4CC[C@@H]3O4)c2)c1" when you can.
4.30 to 5.00

Indicate the recorded pIC50 value for this compound: "Cn1cnc(-c2cc(Cl)c(F)c(C(=O)NNS(=O)(=O)C[C@H]3CC[C@H](N(C)C(=O)OC(C)(C)C)CC3)c2)c1"
4.30 to 5.00

For "Cn1cnc(-c2cc(Cl)c(F)c(C(=O)NNS(=O)(=O)C[C@H]3CCC[C@H](N)C3)c2)c1" , write its pIC50.
4.30 to 5.00

Provide measured pIC50 value, entry: "CCn1cnc(C)c1-c1cc(Cl)c(F)c(C(=O)NNS(=O)(=O)CC2CCCCC2)c1"
< 4.00

Fill in pIC50 for record "CNC(=O)N1CC(CS(=O)(=O)NNC(=O)c2cc(-c3cn(C)cn3)cc(Cl)c2F)C1"
4.30 to 5.00

Give the measured pIC50 for "CC(C)C(=O)N[C@H]1CC[C@@H](CS(=O)(=O)NNC(=O)c2cc(-c3cn(C)cn3)cc(Cl)c2F)CC1"
4.30 to 5.00

State, in one line, measured pIC50 of Cn1cnc(-c2cc(Cl)c(F)c(C(=O)NNS(=O)(=O)CC3CCCCC3O)c2)c1 (stereo not drawn)
4.00 to 4.30

Entry CC1CCCC(CS(=O)(=O)NNC(=O)c2cc(-c3cn(C)cn3)cc(Cl)c2F)C1 (stereo not drawn) needs its pIC50 filled in; supply it.
4.30 to 5.00

Provide measured pIC50 value, entry: "Cn1cnc(-c2cc(Cl)c(F)c(C(=O)NNS(=O)(=O)C[C@H]3CCN(C(=O)OC(C)(C)C)C3)c2)c1"
4.30 to 5.00

Fill in reported pIC50 for this entry: "Cn1cnc(-c2cc(Cl)c(F)c(C(=O)NNS(=O)(=O)C[C@H]3CCC[C@@H](NC(=O)OC(C)(C)C)C3)c2)c1"
4.30 to 5.00

Note pIC50 for the compound shown: Cn1cnc(-c2cc(Cl)c(F)c(C(=O)NNS(=O)(=O)CC3CCN(C(=O)CCO)C3)c2)c1 (stereo not drawn)
4.30 to 5.00

###

Give IC50 for every item shown.
- target or test system: KAT-8 (Homo sapiens (Human), UniProt Q9H7Z6)
- protocol summary: KAT-8 biochemical inhibition assay (SAMDI mass spectrometry)

Tell me its IC50 given COCC(=O)N1CCC(CS(=O)(=O)NNC(=O)c2cc(-c3cn(C)cn3)cc(Cl)c2F)C1 (stereo not shown) as the entry.
10 to 50 µM

Name the recorded IC50 of the compound listed here: "Cn1cnc(-c2cc(Cl)c(F)c(C(=O)NNS(=O)(=O)c3nccs3)c2)c1"
10 to 50 µM

Note down IC50 recorded for Cn1cnc(-c2cc(Cl)c(F)c(C(=O)NNS(=O)(=O)CC3CCC(NC(=O)N4CCC4)C3)c2)c1 (stereo not shown)
10 to 50 µM

Assign IC50 to the following record: "COCc1nc(-c2cc(Cl)c(F)c(C(=O)NNS(=O)(=O)CC3CCCCC3)c2)cn1C"
10 to 50 µM

Provide one value: measured IC50 of "Cn1cnc(-c2cc(Cl)c(F)c(C(=O)NNS(=O)(=O)CCC3CCOCC3)c2)c1"
10 to 50 µM

Look up and report measured IC50 for this entry: "CCNC(=O)N[C@H]1CCC[C@H](CS(=O)(=O)NNC(=O)c2cc(-c3cn(C)cn3)cc(Cl)c2F)C1"
10 to 50 µM

Using the record for "CN(C(=O)OC(C)(C)C)c1ccc(S(=O)(=O)NNC(=O)c2cc(-c3cn(C)cn3)cc(Cl)c2F)cc1" , state its measured IC50.
10 to 50 µM

###

- target or test system: UniProtKB O95251
- Sequence (O95251 other isoform, or with tags, fused parts or gaps): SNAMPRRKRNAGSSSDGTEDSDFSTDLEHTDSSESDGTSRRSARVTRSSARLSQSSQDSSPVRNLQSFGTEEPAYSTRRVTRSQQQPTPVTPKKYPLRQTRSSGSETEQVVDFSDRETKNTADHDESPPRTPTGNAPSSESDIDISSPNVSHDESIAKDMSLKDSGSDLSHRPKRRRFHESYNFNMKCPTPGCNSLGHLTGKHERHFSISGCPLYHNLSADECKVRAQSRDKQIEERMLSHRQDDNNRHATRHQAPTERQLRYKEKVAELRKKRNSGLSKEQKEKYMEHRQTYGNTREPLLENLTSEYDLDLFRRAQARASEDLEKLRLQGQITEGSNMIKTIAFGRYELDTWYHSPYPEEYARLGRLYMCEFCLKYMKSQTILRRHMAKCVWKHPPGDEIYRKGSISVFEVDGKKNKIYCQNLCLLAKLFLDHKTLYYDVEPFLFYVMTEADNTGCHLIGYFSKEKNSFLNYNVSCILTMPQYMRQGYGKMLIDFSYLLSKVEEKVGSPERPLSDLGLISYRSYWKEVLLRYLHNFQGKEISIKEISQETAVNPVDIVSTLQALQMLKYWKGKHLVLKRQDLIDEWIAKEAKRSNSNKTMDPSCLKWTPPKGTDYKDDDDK
- protocol summary: KAT-7 biochemical inhibition assay (SAMDI mass spectrometry)
pIC50: −log10 of the molar value.
property measured: pIC50

Tell us which pIC50 value is on record for Cn1ccc(-c2cc(Cl)c(F)c(C(=O)NNS(=O)(=O)CC3CCOCC3)c2)n1 [Compound I-6]
4.30 to 5.00

Return value of pIC50 for input Cn1cnc(-c2cc(Cl)c(F)c(C(=O)NNS(=O)(=O)C[C@H]3C[C@@H](NC(N)=O)C3)c2)c1 [Compound I-235] , no commentary.
> 5.00

Consider the compound O=C(NNS(=O)(=O)CC1CCCCC1)c1cc(-n2cccn2)cc(Cl)c1F [Compound I-34] . State its measured pIC50.
4.30 to 5.00

Identify pIC50 associated with the compound Cn1cnc(-c2cc(Cl)c(F)c(C(=O)NNS(=O)(=O)CC3CN(S(=O)(=O)C4CCC4)C3)c2)c1 [Compound I-170]
> 5.00

Specify pIC50 for CN1CCN([C@H]2C[C@H](CS(=O)(=O)NNC(=O)c3cc(-c4cn(C)cn4)cc(Cl)c3F)C2)C1=O [Compound I-312] and stop.
> 5.00

Report pIC50, nothing else, for this compound: CCNC(=O)N[C@@H]1CCC[C@@H](CS(=O)(=O)NNC(=O)c2cc(-c3cn(C)cn3)cc(Cl)c2F)C1 [Compound I-355]
> 5.00

Return value of pIC50 for input Cc1cc(-c2cnn(C(C)C)c2)cc(C(=O)NNS(=O)(=O)C2CCCCC2)c1F [Compound I-155] , no commentary.
4.30 to 5.00
